- Test system: 616215-338-R-J1-PDC complex spheroids, viability % test/control;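 also: spheroids exposed to agents for 7 days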
- test protocol: Anticancer human tumor 616215-338-R-J1-PDC patient-derived colon adenocarcinoma cell line growth inhibition [CLK]; active = viability on the fitted dose curve at most 10% of control; inactive = the rest
- run parameters: second compound 1 µM; first compound 0.0316 µM
Hello, when you answer, please use one of the following outcomes: TRUE = active, FALSE = inactive

[
  {
    "molecule": "C#Cc1c(F)ccc2cc(O)cc(-c3ncc4c(N5CC6CCC(C5)N6)nc(OCC56CCCN5CC(F)C6)nc4c3F)c12 (stereo not given) + CN1CCN(c2cc(C(=O)Nc3cc4cc(-c5cnn(C)c5)ccc4cn3)ccn2)CC1",
    "label": "TRUE"
  },
  {
    "molecule": "Cn1ncnc1[C@H]1c2n[nH]c(=O)c3cc(F)cc(c23)N[C@@H]1c1ccc(F)cc1 + CN1CCN(c2cc(C(=O)Nc3cc4cc(-c5cnn(C)c5)ccc4cn3)ccn2)CC1",
    "label": "TRUE"
  }
]

Task item: How did this test come out for CCN1CCN(Cc2ccc(Nc3ncc(F)c(-c4cc(F)c5nc(C)n(C(C)C)c5c4)n3)nc2)CC1 + CNC(=O)c1ccc(Nc2nc(OC3CCCC3)c3c(-c4ccc5nc(C)oc5c4)c[nH]c3n2)c(OC)c1 ?
Reply: FALSE

Task item: Another: CC(=O)O[C@H]1C(=O)[C@@]2(C)[C@H]([C@H](OC(=O)c3ccccc3)[C@]3(O)C[C@H](OC(=O)[C@H](O)[C@@H](NC(=O)c4ccccc4)c4ccccc4)C(C)=C1C3(C)C)[C@]1(OC(C)=O)CO[C@@H]1C[C@@H]2O + CNC(=O)c1ccc(Nc2nc(OC3CCCC3)c3c(-c4ccc5nc(C)oc5c4)c[nH]c3n2)c(OC)c1
Reply: FALSE

Task item: Again, but for COC1C=CCC(C)C(C)S(=O)(=O)NC(=O)c2ccc3c(c2)N(CC2CCC21)CC1(CCCc2cc(Cl)ccc21)CO3 (stereo not given) + CNC(=O)c1ccc(Nc2nc(OC3CCCC3)c3c(-c4ccc5nc(C)oc5c4)c[nH]c3n2)c(OC)c1
Reply: FALSE

Task item: # repeat for CCCS(=O)(=O)Nc1ccc(F)c(C(=O)c2c[nH]c3ncc(-c4ccc(Cl)cc4)cc23)c1F + CN1CCN(c2cc(C(=O)Nc3cc4cc(-c5cnn(C)c5)ccc4cn3)ccn2)CC1
Reply: TRUE

Task item: Also, CC1(C)CCC(CN2CCN(c3ccc(C(=O)NS(=O)(=O)c4ccc(NCC5CCOCC5)c([N+](=O)[O-])c4)c(Oc4cnc5[nH]ccc5c4)c3)CC2)=C(c2ccc(Cl)cc2)C1 + CNC(=O)c1ccc(Nc2nc(OC3CCCC3)c3c(-c4ccc5nc(C)oc5c4)c[nH]c3n2)c(OC)c1 please.
Reply: FALSE

Task item: Repeat with COc1ccc([C@@H](O)c2cc(-c3ncnc4cc(N5CCOCC5)ccc34)c(F)cc2Cl)nn1 + CNC(=O)c1ccc(Nc2nc(OC3CCCC3)c3c(-c4ccc5nc(C)oc5c4)c[nH]c3n2)c(OC)c1
Reply: FALSE

Task item: For O=c1[nH]cc(F)c(=O)[nH]1 + CN1CCN(c2cc(C(=O)Nc3cc4cc(-c5cnn(C)c5)ccc4cn3)ccn2)CC1 then?
Reply: TRUE

Task item: Then what about the molecule C=CC(=O)N1CCN(c2nc(=O)n(-c3c(C)ccnc3C(C)C)c3nc(-c4c(O)cccc4F)c(F)cc23)C(C)C1 (stereo not given) + CNC(=O)c1ccc(Nc2nc(OC3CCCC3)c3c(-c4ccc5nc(C)oc5c4)c[nH]c3n2)c(OC)c1 ?
Reply: FALSE
